Species on record: Homo sapiens
Experiment: Selectivity ratio of Ki for human recombinant CB1 receptor to KI for human recombinant CB2 receptor
Entries and their Ratio Ki values follow.

Example compounds with recorded Ratio Ki:
CC(C)C[C@@H]1COc2cccc3c(=O)c(C(=O)NC45CC6CC(CC(C6)C4)C5)cn1c23: > 1080
CCC1COc2c(N3CCCC3)ccc3c(=O)c(C(=O)NC45CC6CC(CC(C6)C4)C5)cn1c23 (racemic): > 1230
CCCC1COc2ccc(C)c3c(=O)c(C(=O)NC45CC6CC(CC(C6)C4)C5)cn1c23 (racemic): 43

Okay, now this compound:
The reported Ratio Ki of the compound CCCC1COc2cccc3c(=O)c(C(=O)NC45CC6CC(C)(CC(C)(C6)C4)C5)cn1c23 (racemic) was 55
